# Test system: Wistar (Crl:WI(Han)) rats
# Assay info: Mass spectrometry-based plasma metabolite profiling of rats treated with known inducers of thyroid function impairment
# Assay type: in vivo, rat
# Condition label: male rats, mh28 (study day 28), ratio of group medians vs controls, Table 4
Observed property: Nervonic acid C24:(cis[15]1)

[[record]]
compound = "CCC1(c2ccccc2)C(=O)NC(=O)NC1=O [Phenobarbital sodium]"
assay_result = 1.65

[[record]]
compound = "Cn1cc[nH]c1=S [Methimazole]"
assay_result = 2.23

[[record]]
compound = "CCC(CC)Nc1c([N+](=O)[O-])cc(C)c(C)c1[N+](=O)[O-] [Pendimethalin]"
assay_result = 3.07

[[record]]
compound = "Cc1cccc(C)c1N(Cn1cccn1)C(=O)CCl [Metazachlor]"
assay_result = 3.63


----------
# Tested on: Wistar (Crl:WI(Han)) rats
# Assay info: Mass spectrometry-based plasma metabolite profiling of rats treated with known inducers of thyroid function impairment
# Type: in vivo, rat
# Condition label: male rats, mh28 (study day 28), ratio of group medians vs controls, Table 4
Observed property: Cholesterol

[[record]]
molecule = "CCC1(c2ccccc2)C(=O)NC(=O)NC1=O [Phenobarbital sodium]"
assay_result = 1.18

[[record]]
molecule = "Cn1cc[nH]c1=S [Methimazole]"
assay_result = 1.56

[[record]]
molecule = "CCC(CC)Nc1c([N+](=O)[O-])cc(C)c(C)c1[N+](=O)[O-] [Pendimethalin]"
assay_result = 2.29

[[record]]
molecule = "Cc1cccc(C)c1N(Cn1cccn1)C(=O)CCl [Metazachlor]"
assay_result = 2.43


----------
# Test system: Wistar (Crl:WI(Han)) rats
# Assay info: Mass spectrometry-based plasma metabolite profiling of rats treated with known inducers of thyroid function impairment
# Type: in vivo, rat
# Condition label: male rats, mh28 (study day 28), ratio of group medians vs controls, Table 4
Observed property: Mannose

[[record]]
molecule = "Cn1cc[nH]c1=S"
assay_result = 0.87

[[record]]
molecule = "CCC(CC)Nc1c([N+](=O)[O-])cc(C)c(C)c1[N+](=O)[O-]"
assay_result = 1.40

[[record]]
molecule = "CCC1(c2ccccc2)C(=O)NC(=O)NC1=O [Phenobarbital sodium]"
assay_result = 1.09

[[record]]
molecule = "Cc1cccc(C)c1N(Cn1cccn1)C(=O)CCl"
assay_result = 1.46


----------
# Test system: Wistar (Crl:WI(Han)) rats
# Assay info: Mass spectrometry-based plasma metabolite profiling of rats treated with known inducers of thyroid function impairment
# Format: in vivo, rat
# Condition label: male rats, mh14 (study day 14), ratio of group medians vs controls, Table 4
Observed property: Behenic acid (C22:0)

[[record]]
compound = "CCC1(c2ccccc2)C(=O)NC(=O)NC1=O [Phenobarbital sodium]"
observed_property = "Behenic acid (C22:0)"
assay_result = 1.11

[[record]]
compound = "Cc1cccc(C)c1N(Cn1cccn1)C(=O)CCl"
observed_property = "Behenic acid (C22:0)"
assay_result = 2.47

[[record]]
compound = "CCC(CC)Nc1c([N+](=O)[O-])cc(C)c(C)c1[N+](=O)[O-]"
observed_property = "Behenic acid (C22:0)"
assay_result = 1.90

[[record]]
compound = "Cn1cc[nH]c1=S"
observed_property = "Behenic acid (C22:0)"
assay_result = 3.03


----------
# Tested on: Wistar (Crl:WI(Han)) rats
# Assay info: Mass spectrometry-based plasma metabolite profiling of rats treated with known inducers of thyroid function impairment
# Format: in vivo, rat
# Condition label: male rats, mh14 (study day 14), ratio of group medians vs controls, Table 4
Observed property: Citrate

[[record]]
compound = "Cc1cccc(C)c1N(Cn1cccn1)C(=O)CCl"
assay_result = 0.94

[[record]]
compound = "CCC(CC)Nc1c([N+](=O)[O-])cc(C)c(C)c1[N+](=O)[O-]"
assay_result = 0.83

[[record]]
compound = "CCC1(c2ccccc2)C(=O)NC(=O)NC1=O [Phenobarbital sodium]"
assay_result = 0.93

[[record]]
compound = "Cn1cc[nH]c1=S"
assay_result = 0.69


----------
# System: Wistar (Crl:WI(Han)) rats
# Assay info: Mass spectrometry-based plasma metabolite profiling of rats treated with known inducers of thyroid function impairment
# Assay type: in vivo, rat
# Condition label: male rats, mh14 (study day 14), ratio of group medians vs controls, Table 4
Observed property: Glycerol phosphate

[[record]]
compound = "CCC(CC)Nc1c([N+](=O)[O-])cc(C)c(C)c1[N+](=O)[O-] [Pendimethalin]"
observed_property = "Glycerol phosphate"
assay_result = 2.38

[[record]]
compound = "CCC1(c2ccccc2)C(=O)NC(=O)NC1=O [Phenobarbital sodium]"
observed_property = "Glycerol phosphate"
assay_result = 1.04

[[record]]
compound = "Cn1cc[nH]c1=S [Methimazole]"
observed_property = "Glycerol phosphate"
assay_result = 1.67

[[record]]
compound = "Cc1cccc(C)c1N(Cn1cccn1)C(=O)CCl [Metazachlor]"
observed_property = "Glycerol phosphate"
assay_result = 2.20


----------
Nervonic acid C24:(cis[15]1): recorded values
# Test system: Wistar (Crl:WI(Han)) rats
# Assay info: Mass spectrometry-based plasma metabolite profiling of rats treated with known inducers of thyroid function impairment
# Assay type: in vivo, rat
# Condition label: male rats, mh14 (study day 14), ratio of group medians vs controls, Table 4
Observed property: Nervonic acid C24:(cis[15]1)

[[record]]
compound = "CCC1(c2ccccc2)C(=O)NC(=O)NC1=O [Phenobarbital sodium]"
assay_result = 1.77

[[record]]
compound = "Cc1cccc(C)c1N(Cn1cccn1)C(=O)CCl [Metazachlor]"
assay_result = 4.00

[[record]]
compound = "CCC(CC)Nc1c([N+](=O)[O-])cc(C)c(C)c1[N+](=O)[O-] [Pendimethalin]"
assay_result = 2.99

[[record]]
compound = "Cn1cc[nH]c1=S [Methimazole]"
assay_result = 3.00


----------
# Tested on: Wistar (Crl:WI(Han)) rats
# Assay info: Mass spectrometry-based plasma metabolite profiling of rats treated with known inducers of thyroid function impairment
# Format: in vivo, rat
# Condition label: male rats, mh7 (study day 7), ratio of group medians vs controls, Table 4
Galactose, lipid fraction: recorded values
Observed property: Galactose, lipid fraction

[[record]]
compound = "Cc1cccc(C)c1N(Cn1cccn1)C(=O)CCl"
observed_property = "Galactose, lipid fraction"
assay_result = 1.81

[[record]]
compound = "Cn1cc[nH]c1=S"
observed_property = "Galactose, lipid fraction"
assay_result = 1.60

[[record]]
compound = "CCC(CC)Nc1c([N+](=O)[O-])cc(C)c(C)c1[N+](=O)[O-]"
observed_property = "Galactose, lipid fraction"
assay_result = 1.81

[[record]]
compound = "CCC1(c2ccccc2)C(=O)NC(=O)NC1=O [Phenobarbital sodium]"
observed_property = "Galactose, lipid fraction"
assay_result = 1.12


----------
threo-Sphingosine: recorded values
# Tested on: Wistar (Crl:WI(Han)) rats
# Assay info: Mass spectrometry-based plasma metabolite profiling of rats treated with known inducers of thyroid function impairment
# Format: in vivo, rat
# Condition label: male rats, mh28 (study day 28), ratio of group medians vs controls, Table 4
Observed property: threo-Sphingosine

[[record]]
compound = "CCC1(c2ccccc2)C(=O)NC(=O)NC1=O [Phenobarbital sodium]"
assay_result = 1.50

[[record]]
compound = "Cc1cccc(C)c1N(Cn1cccn1)C(=O)CCl [Metazachlor]"
assay_result = 3.54

[[record]]
compound = "Cn1cc[nH]c1=S [Methimazole]"
assay_result = 4.30

[[record]]
compound = "CCC(CC)Nc1c([N+](=O)[O-])cc(C)c(C)c1[N+](=O)[O-] [Pendimethalin]"
assay_result = 2.73


----------
# System: Wistar (Crl:WI(Han)) rats
# Assay info: Mass spectrometry-based plasma metabolite profiling of rats treated with known inducers of thyroid function impairment
# Format: in vivo, rat
# Condition label: male rats, mh7 (study day 7), ratio of group medians vs controls, Table 4
Observed property: Lignoceric acid (C24:0)

[[record]]
molecule = "Cc1cccc(C)c1N(Cn1cccn1)C(=O)CCl"
observed_property = "Lignoceric acid (C24:0)"
assay_result = 1.60

[[record]]
molecule = "Cn1cc[nH]c1=S"
observed_property = "Lignoceric acid (C24:0)"
assay_result = 2.12

[[record]]
molecule = "CCC1(c2ccccc2)C(=O)NC(=O)NC1=O [Phenobarbital sodium]"
observed_property = "Lignoceric acid (C24:0)"
assay_result = 1.21

[[record]]
molecule = "CCC(CC)Nc1c([N+](=O)[O-])cc(C)c(C)c1[N+](=O)[O-]"
observed_property = "Lignoceric acid (C24:0)"
assay_result = 2.32


----------
# Test system: Wistar (Crl:WI(Han)) rats
# Assay info: Mass spectrometry-based plasma metabolite profiling of rats treated with known inducers of thyroid function impairment
# Type: in vivo, rat
# Condition label: male rats, mh14 (study day 14), ratio of group medians vs controls, Table 4
threo-Sphingosine: recorded values
Observed property: threo-Sphingosine

[[record]]
compound = "CCC1(c2ccccc2)C(=O)NC(=O)NC1=O [Phenobarbital sodium]"
assay_result = 1.61

[[record]]
compound = "CCC(CC)Nc1c([N+](=O)[O-])cc(C)c(C)c1[N+](=O)[O-]"
assay_result = 3.52

[[record]]
compound = "Cn1cc[nH]c1=S"
assay_result = 3.78

[[record]]
compound = "Cc1cccc(C)c1N(Cn1cccn1)C(=O)CCl"
assay_result = 3.22


Measured values drawn from patent US20120132797A1 for this set.
